Experiment: Human HepG2 cell viability assay in 384 well format
Assay type: toxicity, cell-based
Parameters: dose 125 nL, time 70.5 hour; concentration not given beside the values
Details: HepG2 cells, read-out: Inhibition
In this section, each of the compounds is paired with its reported cytotoxicity at 70.5 h.
Express your answer in %, writing the number without its unit.

Below, 5 compounds whose answers are already recorded.
compound	cytotoxicity at 70.5 h (%)
Cc1cc(C(C)(O)CNC(=O)OC(C)(C)C)c(C)o1 (stereo not drawn)	0.912
Cc1cnn(-c2ccc(S(=O)(=O)N(C)CC(F)F)cc2F)c1	-8.45
COCCCn1ccc(NC(=O)NCCCNc2ccccc2)n1	-3.49
Cc1ccc(-c2n[nH]cc2CNCC2CCN(CC(C)O)CC2)cc1 (stereo not drawn)	-1.53
Cn1cc(N2CCCC(SCc3nc(C4CC4)no3)C2=O)cn1 (stereo not drawn)	29.8

Exercise: Requested read-out: cytotoxicity at 70.5 h. Entry: OC(CN1CCC(c2ccn[nH]2)CC1)c1cc(F)ccc1F (stereo not drawn)
Key: -1.27

Exercise: Given the compound CCn1nc(C)c2nnn(CC(=O)Nc3ccccc3F)c(=O)c21 , what is its reported cytotoxicity at 70.5 h?
Key: -4.52

Exercise: Tell me the measured cytotoxicity at 70.5 h of NS(=O)(=O)c1cccc(CNc2nccc(C(F)(F)F)n2)c1 , please.
Key: -5.9

Exercise: Value lookup for cytotoxicity at 70.5 h; key = CCN(C)CC1CCN(C(=O)Nc2ccc(-c3csnn3)cc2)C1 (stereo not drawn)
Key: -5.78

Exercise: I would be grateful if you could share the reported cytotoxicity at 70.5 h for CN(Cc1n[nH]c2c1CCCCC2)C(=O)c1cc(-c2cccn2C)n[nH]1 .
Key: -5.14

Exercise: What measured cytotoxicity at 70.5 h goes with CN(C)Cc1cn(CC2CCCN(c3nccc4occc34)C2)nn1 (stereo not drawn) ?
Key: -14.2

Exercise: Reported cytotoxicity at 70.5 h for CC1N(c2cnn(C)c2)C(=O)COC12CCN(c1ccccn1)CC2 (stereo not drawn) : what is it?
Key: -2.76

Exercise: May I ask what cytotoxicity at 70.5 h has been recorded for CCCOCC(=O)N1CCC2(CC1)c1nc[nH]c1CCN2S(C)(=O)=O ?
Key: -5.48

Exercise: Please report the recorded cytotoxicity at 70.5 h for Cc1cccc(C(C)(C)CNC(=O)CCSc2nnnn2C)c1 .
Key: -2.6

Exercise: Requested read-out: cytotoxicity at 70.5 h. Entry: c1cncc(OC[C@@]23CCC[C@@H]2CN(C2CCOCC2)C3)c1
Key: -1.53

Exercise: # lookup: cytotoxicity at 70.5 h of CC1CN(C(=O)CN(Cc2ccccc2Cl)C2CCCC2)CCO1 (stereo not drawn)
Key: 6.53

Exercise: Consider the compound shown here: CCOC(=O)c1n[nH]cc1-c1cncn1CCCn1nc(C)cc1C What is its recorded cytotoxicity at 70.5 h?
Key: -5.33

Exercise: cytotoxicity at 70.5 h lookup needed for Cn1cnc(S(=O)(=O)NCCC(O)c2ccc3c(c2)OCO3)c1 (stereo not drawn) , thanks.
Key: 20.5

Exercise: Please give the measured cytotoxicity at 70.5 h for this compound: COc1ccccc1C(=O)N1CCC(Nc2ccc(C)nn2)CC1
Key: -8.98

Exercise: What does the data say about its cytotoxicity at 70.5 h? Entry: Cc1cccc(-c2nccn2-c2cccc(CC(=O)O)c2)n1
Key: -9.85

Exercise: For CC(=O)N1CCC(c2nccnc2C)CC1 , what is its reported cytotoxicity at 70.5 h?
Key: -1.76

Exercise: What cytotoxicity at 70.5 h value was documented for this compound, CN(C)CC1(O)CCCN(C(=O)Cn2ccc3ccccc32)CC1 (stereo not drawn) ?
Key: 29.7

Exercise: Record request: cytotoxicity at 70.5 h value, item CCN(CC)C(=O)[C@@H]1C[C@@H](n2cc(-c3cccc(OC)c3)nn2)CN1
Key: -15.1

Exercise: Give its cytotoxicity at 70.5 h value. Item: CC(C)NC(=O)CN(C)C(=O)c1c(Cl)c2ccccc2n1C
Key: -0.0324

Exercise: Which cytotoxicity at 70.5 h reading was recorded for the compound CCC1CCCCN1Cc1ncc(-c2ccc(OC)cc2)o1 (stereo not drawn) ?
Key: 18.3

Exercise: Suppose we examine the compound Cc1cnn(CC(C)NCc2ccc(C#N)cc2F)c1 (stereo not drawn) ; what cytotoxicity at 70.5 h value has been reported?
Key: -4.59
